test system: Puccinia recondita f. sp. tritici; assay: Test H: preventive spray on wheat seedlings, wheat leaf rust, visual disease rating; assay type: in vivo; details: 200 ppm test suspension

structure: Cc1nn(C)c(Nc2ccccc2F)c1-c1ccc(F)cc1Cl
targetOrTestSystem: Puccinia recondita f. sp. tritici
pest or weed control at 200 ppm: 99%
--
structure: Cc1nn(C)c(Nc2c(F)cccc2Br)c1-c1ccc(F)cc1Br
targetOrTestSystem: Puccinia recondita f. sp. tritici
pest or weed control at 200 ppm: 100%
--
structure: Cc1nn(C)c(Nc2ccccc2Cl)c1-c1ccc(F)cc1Br
targetOrTestSystem: Puccinia recondita f. sp. tritici
pest or weed control at 200 ppm: 99%
--
structure: Cc1nn(C)c(Nc2c(F)cccc2Cl)c1-c1ccc(F)cc1Br
targetOrTestSystem: Puccinia recondita f. sp. tritici
pest or weed control at 200 ppm: 100%
--
structure: Cc1nn(C)c(Nc2c(F)cccc2Br)c1-c1ccc(F)cc1Cl
targetOrTestSystem: Puccinia recondita f. sp. tritici
pest or weed control at 200 ppm: 100%
--
structure: Cc1nn(C)c(Nc2c(F)cccc2F)c1-c1ccc(F)cc1Cl
targetOrTestSystem: Puccinia recondita f. sp. tritici
pest or weed control at 200 ppm: 99%
--
structure: Cc1nn(C)c(Nc2c(F)cccc2Cl)c1-c1ccc(F)cc1Cl
targetOrTestSystem: Puccinia recondita f. sp. tritici
pest or weed control at 200 ppm: 100%
